Assay: qHTS of pediatric cancer cell lines to identify multiple opportunities for drug repurposing: Primary screen for MG 63 (6-TG R) cells (AID 1347105); further: nearly all actives have a fitted effect of over 50% in size
Conditions: MG 63 (6-TG R) viability, CellTiter-Glo, 48 h; series mostly up to 46 µM
Records with an inconclusive call do not appear. Activity calls are given as the source filed them. The call rests on the fitted dose curve; in most records, active means well fitted cell-killing curve with a large enough effect; inconclusive means small, poorly fitted or top-dose-only effect; inactive means no such curve, though single readings can be large or run the other way.
# output must be one of active, inactive

Record excerpt, results attached:
compound: CC(C)Cn1cnc2c(N)nc3ccccc3c21
group label: inactive

compound: N=C(N)c1ccc(OCCCCCOc2ccc(C(=N)N)cc2)cc1
group label: inactive

compound: Cc1ccc(S(=O)(=O)N[C@@H](Cc2ccccc2)C(=O)CCl)cc1
group label: active

Pending compound:
Per the assay record, what outcome was assigned to `CC(=O)[C@H]1CC[C@H]2[C@@H]3CC=C4C[C@@H](O)CC[C@]4(C)[C@H]3CC[C@]12C` ?
inactive

----------
Test system: C33A
Assay: Primary qHTS to identify gynecologic anti-cancer compounds using libraries of approved drugs and bioactive compounds (AID 1345084); further: nearly all actives have a fitted effect of over 55% in size
Conditions: Gynecologic cancer cell panel viability, ATPlite luminescence, 48 h; series mostly up to 57.5 µM
Inconclusive results are not listed. The source made the active and inactive calls. Calls follow the shape of the dose curve; as a rule, active = well fitted cell-killing curve with a large enough effect; inconclusive = small, poorly fitted or top-dose-only effect, or effect the other way; inactive = flat fitted curve, though single readings scatter.
# output must be one of active, inactive

Record excerpt, results attached:
molecule: Cc1nnc(NS(=O)(=O)c2ccc(N)cc2)s1
test system: C33A
group label: inactive
//
molecule: COc1ccc(-c2ccc3cc(C(=O)O)ccc3c2)cc1C12CC3CC(CC(C3)C1)C2
test system: C33A
group label: inactive

Pending molecule:
Per the assay record, what outcome was assigned to C1CCC(C(CC2CCCCN2)C2CCCCC2)CC1 (stereo not drawn) ?
active

----------
Test system: TAB165
Experiment: qHTS profiling for inhibitors of Plasmodium falciparum proliferation (AID 504749); further: nearly all actives have a fitted effect of over 60% in size
Details: P. falciparum in erythrocytes, SYBR Green DNA, 72 h; series mostly up to 28.7 µM
Records with an inconclusive call do not appear. The source made the active and inactive calls. Calls follow the shape of the dose curve; as a rule, active = well fitted inhibition curve with a large enough effect; inconclusive = small, poorly fitted or top-dose-only effect; inactive = flat fitted curve, though single readings scatter.
# output must be one of y for active, n for inactive

molecule: CN(C)CCc1c[nH]c2ccc(CS(=O)(=O)N3CCCC3)cc12
group label: n
--
molecule: COc1nc(N)nc2c1ncn2[C@@H]1O[C@H](CO)[C@@H](O)[C@@H]1O
group label: n

Per the assay record, what outcome was assigned to `Cn1nnc2c(C(N)=O)ncn2c1=O` ?
n

Per the assay record, what outcome was assigned to `COC(=O)Nc1nc2ccc(Sc3ccccc3)cc2[nH]1` ?
n

Per the assay record, what outcome was assigned to `Cc1cccc(N(C)C(=S)Oc2ccc3ccccc3c2)c1` ?
n

Per the assay record, what outcome was assigned to `CCn1cc(C(=O)O)c(=O)c2cc(F)c(N3CCNCC3)cc21` ?
n

Per the assay record, what outcome was assigned to Cc1oc(=O)oc1CN1CCN(c2cc3c(cc2F)c(=O)c(C(=O)O)c2n3C(C)S2)CC1 (stereo unspecified) ?
y

Per the assay record, what outcome was assigned to `CC[C@H](NC(C)C)[C@H](O)c1ccc(O)c2[nH]c(=O)ccc12` ?
n

Per the assay record, what outcome was assigned to `O=S(=O)(O)CCS` ?
n

----------
Tested on: DIV17
Experiment: qHTS profiling for inhibitors of Plasmodium falciparum proliferation (AID 504749); further: nearly all actives have a fitted effect of over 60% in size; further: potency means the concentration at half of the fitted maximal effect
Conditions: P. falciparum in erythrocytes, SYBR Green DNA, 72 h; series mostly up to 28.7 µM
Inconclusive results are not listed. Calls of active or inactive are those of the source. Calls follow the shape of the dose curve; as a rule, active = well fitted inhibition curve with a large enough effect; inconclusive = small, poorly fitted or top-dose-only effect; inactive = flat fitted curve, though single readings scatter.
observable: Potency

Observe how each entry below is paired with its result.
compound: Cc1oc(=O)oc1CN1CCN(c2cc3c(cc2F)c(=O)c(C(=O)O)c2n3C(C)S2)CC1 (stereo not drawn)
test system: DIV17
observable: Potency
experimental result: 16.9 µM (active)
//
compound: CC(C)(C#N)c1cc(Cn2cncn2)cc(C(C)(C)C#N)c1
test system: DIV17
observable: Potency
experimental result: inactive
//
compound: COc1cc(NCc2ccc3nc(N)nc(N)c3c2C)cc(OC)c1OC
test system: DIV17
observable: Potency
experimental result: 0.239 µM (active)
//
compound: CCn1cc(C(=O)O)c(=O)c2cc(F)c(N3CCNCC3)nc21
test system: DIV17
observable: Potency
experimental result: inactive
//
compound: OC(Cn1cncn1)(Cn1cncn1)c1ccc(F)cc1F
test system: DIV17
observable: Potency
experimental result: inactive
//
compound: Nc1[nH]c(=O)ncc1F
test system: DIV17
observable: Potency
experimental result: inactive
//
compound: Cc1ccnc2c1NC(=O)c1cccnc1N2C1CC1
test system: DIV17
observable: Potency
experimental result: inactive

Any idea what Potency was measured for `CCOC(=O)c1ccc(C#Cc2ccc3c(c2)C(C)(C)CCS3)nc1` ?
inactive

----------
Assay: qHTS Screen of the MIPE 4.0 Collection Against Ewings Sarcoma (TC32) (AID 1259256); further: nearly all actives have a fitted effect of over 45% in size
Conditions: TC32 Ewing sarcoma viability, CellTiter-Glo, 48 h; series mostly up to 45.8 µM
Records with an inconclusive call do not appear. The source made the active and inactive calls. The call rests on the fitted dose curve; in most records, active means well fitted inhibition curve with a large enough effect; inconclusive means small, poorly fitted or top-dose-only effect; inactive means no such curve, though single readings can be large or run the other way.
# output must be one of t (active), f (inactive)

Record excerpt, results attached:
smiles repr: COc1cc(NCc2ccc3nc(N)nc(N)c3c2C)cc(OC)c1OC
group label: t
//
smiles repr: CC(C)C[C@H](NC(=O)[C@H](CCc1ccccc1)NC(=O)CN1CCOCC1)C(=O)N[C@@H](Cc1ccccc1)C(=O)N[C@@H](CC(C)C)C(=O)[C@@]1(C)CO1
group label: t
//
smiles repr: COc1cc(NS(=O)(=O)c2ccc(N)cc2)nc(OC)n1
group label: f

Per the assay record, what outcome was assigned to `OC(Cn1cncn1)(Cn1cncn1)c1ccc(F)cc1F` ?
f

----------
Assay: Quantitative High-Throughput drug screen in 47 multiple myeloma cell lines against the NCATS MIPE library collection: KMS34_JCRB cell viability assay (AID 1918985); further: nearly all actives have a fitted effect of over 40% in size
Details: KMS34 myeloma viability, CellTiter-Glo ATP luminescence, 48 h; series mostly up to 45.8 µM
Inconclusive results are not listed. Active and inactive are the calls of the source. Calls follow the shape of the dose curve; as a rule, active = well fitted cell-killing curve with a large enough effect; inconclusive = small, poorly fitted or top-dose-only effect, or effect the other way; inactive = no such curve, though single readings can be large or run the other way.
# output must be one of active, inactive

Record excerpt, results attached:
compound: O=NN(CCCl)C(=O)NC1CCCCC1
group label: inactive
--
compound: CN1CCCC(n2nc(Cc3ccc(Cl)cc3)c3ccccc3c2=O)CC1 (configuration not stated)
group label: active
--
compound: CCCCS(=N)(=O)CCC(N)C(=O)O (configuration not stated)
group label: inactive

Per the assay record, what outcome was assigned to `CCC(=O)O[C@]1(C(=O)CCl)[C@@H](C)C[C@H]2[C@@H]3CCC4=CC(=O)C=C[C@]4(C)[C@@]3(F)[C@@H](O)C[C@@]21C` ?
inactive

Per the assay record, what outcome was assigned to `CCCCCCNC(=O)n1cc(F)c(=O)[nH]c1=O` ?
active

----------
Test: Quantitative High-Throughput drug screen in 47 multiple myeloma cell lines against the NCATS MIPE library collection: OCIMY7_PLB cell viability assay (AID 1918987); further: nearly all actives have a fitted effect of over 65% in size
Settings: OCI-MY7 myeloma viability, CellTiter-Glo ATP, 48 h; series mostly up to 45.8 µM
Inconclusive results are not listed. The source made the active and inactive calls. The call rests on the fitted dose curve; in most records, active means well fitted cell-killing curve with a large enough effect; inconclusive means small, poorly fitted or top-dose-only effect, or effect the other way; inactive means no such curve, though single readings can be large or run the other way.
# output must be one of 1 (active), -1 (inactive)

Record excerpt, results attached:
compound: O=C(O)C1CCCN(CCC=C(c2ccccc2)c2ccccc2)C1 (stereo not drawn)
group label: -1

compound: Nc1nc(F)nc2c1ncn2[C@@H]1O[C@H](CO)[C@@H](O)[C@@H]1O
group label: 1

Pending compound:
Per the assay record, what outcome was assigned to `CNC(=O)c1cc(Oc2ccc(NC(=O)Nc3ccc(Cl)c(C(F)(F)F)c3)cc2)ccn1` ?
1

----------
What max response was measured for each of the following?
Assay: qHTS Assay for Identifying Gametocytocidal Compounds (AID 743244);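 further: on the % scale 0 is the no-effect control and ±100 the full control effect; actives lower the fluorescent signal which means gametocytes are killed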
Conditions: P. falciparum 3D7 stage III-V gametocytes, alamarBlue, 72 h; hits give low values
Records with an inconclusive call do not appear.
Answers are plain numbers, in %.

Observe how each entry below is paired with its result.
compound: O=C(O)c1cccnc1
unit spec: %
max response: 3.31
//
compound: CCN(C)C(=O)Oc1cccc([C@H](C)N(C)C)c1
unit spec: %
max response: -3.35
//
compound: NNC(=O)c1ccncc1
unit spec: %
max response: -1.22

Hi team, please reply with max response for each item in this list.
1. Cn1c(=O)c2c(ncn2CC(O)CO)n(C)c1=O (stereo not drawn)
2. CS(=O)(=O)c1ccc([C@@H](O)[C@@H](CO)NC(=O)C(Cl)Cl)cc1
3. CCC(C)(C)c1ccc(CC(C)CN2C[C@@H](C)O[C@@H](C)C2)cc1 (stereo partly drawn)

1. -1.9
2. 8.86
3. 21.2

Hi team, please reply with max response for each item in this list.
1. CC[C@H](NC(C)C)[C@H](O)c1ccc(O)c2[nH]c(=O)ccc12
2. CCOC(=O)[C@H](CCc1ccccc1)N[C@H]1CS[C@H](c2cccs2)CN(CC(=O)O)C1=O
3. OC(Cn1cncn1)(Cn1cncn1)c1ccc(F)cc1F
4. COC(=O)Nc1nc2ccc(S(=O)c3ccccc3)cc2[nH]1 (stereo not drawn)

[0.956, 3.7, -0.14, 20.6]

Hi team, please reply with max response for each item in this list.
1. CC(C)(Sc1cc(C(C)(C)C)c(O)c(C(C)(C)C)c1)Sc1cc(C(C)(C)C)c(O)c(C(C)(C)C)c1
2. Nc1nc(N)c2nc(CNc3ccc(C(=O)NC(CCC(=O)O)C(=O)O)cc3)cnc2n1 (stereo not drawn)
3. CN1CCN(c2c(F)cc3c(=O)c(C(=O)O)cn(CCF)c3c2F)CC1

[-1.03, 32.7, 1.63]
